B1: glmS ribozyme (parent)
chain: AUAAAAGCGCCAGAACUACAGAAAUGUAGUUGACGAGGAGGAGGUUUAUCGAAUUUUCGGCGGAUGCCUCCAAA

# Variants of: B1
# protocol-summary: self-cleavage kobs at 2500 uM GlcN6P; higher = faster cleavage; RNA array
# condition-context: with glucosamine-6-phosphate
Variants at the floor of the assay were thinned out.
// self-cleavage kobs at 2500 uM GlcN6P lookup, one value per entry

See these solved cases before continuing.
G37C G43C: < 1e-05 s⁻¹
G35U U46A C58U: < 1e-05 s⁻¹
A6U A15U: 2.31e-05 s⁻¹

Suppose we examine the variant C61G U69C C70G ; what self-cleavage kobs at 2500 uM GlcN6P value has been reported?
8.71e-05 s⁻¹

// returns reported self-cleavage kobs at 2500 uM GlcN6P for input A33U U54G U56G C61G U69C
0.000171 s⁻¹

self-cleavage kobs at 2500 uM GlcN6P lookup needed for G40U U49G , thanks.
9.77e-05 s⁻¹

Look up self-cleavage kobs at 2500 uM GlcN6P for this variant: G7C G9C C61G G62U
< 1e-05 s⁻¹

Endpoint output: self-cleavage kobs at 2500 uM GlcN6P of U56G C71U . Value?
0.00323 s⁻¹

Fill in the blank: the reported self-cleavage kobs at 2500 uM GlcN6P of G44A G51U U57A is ____.
< 1e-05 s⁻¹

Which self-cleavage kobs at 2500 uM GlcN6P value is on record for A36C U65A ?
< 1e-05 s⁻¹

Reported self-cleavage kobs at 2500 uM GlcN6P for U30A G40A C50U : what is it?
< 1e-05 s⁻¹

Fill in: self-cleavage kobs at 2500 uM GlcN6P of C34U A39U G41C U69G is ___
< 1e-05 s⁻¹

Given A42U A52U U55C C70G , state its recorded self-cleavage kobs at 2500 uM GlcN6P.
< 1e-05 s⁻¹

# lookup: self-cleavage kobs at 2500 uM GlcN6P of A39G A53C C67U
0.000701 s⁻¹

Fill blank: measured self-cleavage kobs at 2500 uM GlcN6P of the variant G44C C61U is ____.
< 1e-05 s⁻¹

Give the measured self-cleavage kobs at 2500 uM GlcN6P of A6C G29C A36G .
< 1e-05 s⁻¹

Item A14C G60U C68U has what recorded self-cleavage kobs at 2500 uM GlcN6P?
< 1e-05 s⁻¹

May I ask what self-cleavage kobs at 2500 uM GlcN6P has been recorded for A14C U31A ?
0.00676 s⁻¹

Quick check: self-cleavage kobs at 2500 uM GlcN6P of C61G U69C ?
7.59e-05 s⁻¹

What value of self-cleavage kobs at 2500 uM GlcN6P has been recorded for this entry: A36G U49A
< 1e-05 s⁻¹

Quick check: self-cleavage kobs at 2500 uM GlcN6P of C8U U30G U55C ?
< 1e-05 s⁻¹

Any idea what self-cleavage kobs at 2500 uM GlcN6P was measured for C8G C10A G41A ?
< 1e-05 s⁻¹

State the recorded self-cleavage kobs at 2500 uM GlcN6P for this entry: G13C G40C A42C
< 1e-05 s⁻¹

Where do these numbers come from? They come from the supplement of paper PMC7125110.
